# TGI annotations
# System: NCI-H23 lung
# PROCEDURE SUMMARY: NCI tumour cell line growth inhibition, 48 h

{"columns": ["COMPOUND", "TGI"],
 "data": [
  ["Cc1ccc(NC(=O)C2C3CCC(O3)C2C(=O)O)cc1 (stereo unspecified)", "> 100 µM"],
  ["COc1ccc(/C=C/C(=O)c2ccc(Br)cc2)cc1", "> 100 µM"],
  ["COc1cc2c[n+](C)c3c4cc(OC)c(OCc5ccccc5)cc4c(OCc4ccccc4)cc3c2cc1OC", "20.5 µM"]
]}

Exercise: Fill in the recorded TGI for this compound, with NCI-H23 lung as test system: COC(=O)c1cc(-c2ccc(S(C)(=O)=O)cc2)[nH]c1N/N=C/c1c(Cl)cccc1Cl
Key: > 93.7 µM

Exercise: State its TGI on NCI-H23 lung: COc1ccc(-c2c(-c3ccc(C#N)c(F)c3)nc(N3CCC(N)CC3)n(C)c2=O)cc1F
Key: 91.6 µM

Exercise: Tell me reported TGI for C(=N\Nc1ccc2ccccc2n1)/c1ccccn1 , tested with NCI-H23 lung.
Key: > 100 µM

Exercise: Requested read-out TGI, target or system NCI-H23 lung, entry O=C1CC(c2ccccc2)n2c(nc3ccccc32)N1 (stereo unspecified)
Key: > 100 µM

====

# Test system: MDA-N
# PROCEDURE SUMMARY: NCI tumour cell line growth inhibition, 48 h
TEST READOUT: TGI

{"columns": ["COMPOUND", "TEST READOUT", "RESULT"],
 "data": [
  ["COc1ccc(/C=C/C(=O)c2ccc(Br)cc2)cc1", "TGI", "> 100 µM"],
  ["CC(=O)NC(C)(C)C1CCC(C)CC1 (configuration not stated)", "TGI", "> 100 µM"],
  ["NC1=Nc2ccccc2Sc2cccc(F)c21", "TGI", "> 100 µM"],
  ["Cc1[nH]c2nccn2c(=O)c1CCO", "TGI", "> 10 µM"],
  ["O=C1C=CC(=O)c2c1nc(CBr)[nH]c2=O", "TGI", "> 100 µM"]
]}

Exercise: Fill blank: measured TGI of the compound CN(C)CC1CCC/C(=C\c2ccc(OC(=O)/C=C/c3ccc(Cl)cc3)cc2)C1=O (configuration not stated) is ____.
Key: 18.6 µM

====

# System: UACC-62 melanoma
# PROCEDURE SUMMARY: NCI tumour cell line growth inhibition, 48 h
TEST READOUT: TGI

Sample records with TGI:
{"columns": ["COMPOUND", "TEST READOUT", "RESULT"],
 "data": [
  ["O=c1/c(=C/c2ccccn2)sc2nc3cc4c(cc3n12)OCCO4", "TGI", "> 100 µM"],
  ["CCOS(=O)(=O)c1ccc(-c2c3nc(c(-c4ccc(S(=O)(=O)OCC)cc4)c4ccc([nH]4)c(-c4ccc(S(=O)(=O)OCC)cc4)c4nc(c(-c5ccc(S(=O)(=O)OCC)cc5)c5ccc2[nH]5)C=C4)C=C3)cc1", "TGI", "> 31.6 µM"],
  ["C=CCSC(C)=O", "TGI", "> 100 µM"]
]}

Exercise: Looking for the measured TGI of COc1ccc([C@H]2CC3C(=O)N(c4ccc(OC)cc4)C(=O)C3c3[nH]c4ccccc4c32)cc1 (stereo partly specified) , can you help?
Key: > 100 µM

Exercise: Could you tell me which TGI is on file for CN(C)N=Nc1ccc(S(N)(=O)=O)cc1 ?
Key: > 100 µM

Exercise: I have this compound here, COc1ccc(Nc2nc(N)c(C(=O)c3ccc(Cl)cc3)s2)cc1 , and I need its recorded TGI.
Key: > 94.5 µM

Exercise: Look up TGI for this compound: O=c1[nH]c2ccc(CC(=S)N3CCOCC3)cc2o1
Key: > 100 µM

Exercise: Need TGI of CCOC(=O)/C=C1/SC(=Nc2ccc(C#N)cc2)N(Cc2ccco2)C1=O , thanks.
Key: 5.25 µM

Exercise: Look at this compound and give its reported TGI. COc1cc(C2NC(=O)C(C#N)=C(Nc3cccc(C)c3)S2)ccc1O (stereo unspecified)
Key: > 100 µM

Exercise: Which TGI reading was recorded for the compound CCCCOC(=O)NC(=O)c1cn(CCCOC(=O)CCCCCCCCC(=O)OCCCn2cc(C(=O)NC(=O)OCCCC)c(=O)n(C)c2=O)c(=O)n(C)c1=O ?
Key: > 100 µM

Exercise: Can you share its TGI? I mean this compound: Cc1nn2c(c1C#N)NNc1c-2sc(=N)nnc1=O
Key: > 100 µM
